Listing: TGI of selected compounds
Test system: SF-295 CNS
Assay: NCI tumour cell line growth inhibition, 48 h
Unit µM implied. Number only.

sample-smiles | units | TGI
Brc1ccc2c(-c3csc(-c4c[nH]c5cc(Br)ccc45)n3)c[nH]c2c1 | µM | 45.5

Prompt: Quick one: TGI of O=C(N/N=C/c1cc(Br)cc(Br)c1[O-])c1ccccc1O.O=C(N/N=C/c1cc(Br)cc(Br)c1[O-])c1ccccc1O.[Fe+2] ?
Completion: 15.8

Prompt: Quick one: TGI of COC(=O)[C@]12CC[C@@H](C)[C@H](C)[C@@H]1C1=CC[C@@H]3[C@@]4(C)C/C(=N\O)[C@H](O)[C@@]5(C)COC(=C45)C[C@@]3(C)[C@]1(C)CC2 ?
Completion: 17.1
